B1: NET1 (parent)
chain: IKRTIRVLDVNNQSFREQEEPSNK

Variants of: B1
experiment_notes: protein stability index of a GFP-peptide fusion (GPS, HEK-293T) (PSI 1-6); higher = more stable;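 note: lentivirally expressed fusions sorted by FACS into six bins by GFP to DsRed ratio, PSI derived from sequencing read proportions per bin multiplied by bin number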
test_conditions: c terminus: a fixed tail appended
recorded_metric: protein stability index
Just the number, please, no unit after it.

{"mutant_designation": "L8K", "protein stability index": 4.46}

// switching to the query variant
Looking up `F15C` , I found its protein stability index recorded as 4.18

Just for reference, the supplement of paper PMC10567573 is where these values come from.
